- Test system: human monoclonal antibody CRJB
- Format: binding
Use 90 as the dividing line for Binding of CRJB (10 μg/ml) to looped/cyclic peptide (PEPSCAN-ELISA), with the line itself on the Yes side and lower values as No.

Known results for sequences:
### Prompt # bool: Binding of CRJB (10 μg/ml) to looped/cyclic peptide (PEPSCAN-ELISA) of SDEIEHLVVEELVRK >= 90
### Response No

### Prompt # bool: Binding of CRJB (10 μg/ml) to looped/cyclic peptide (PEPSCAN-ELISA) of NKTLMEADAHYKSVR >= 90
### Response Yes

### Prompt # bool: Binding of CRJB (10 μg/ml) to looped/cyclic peptide (PEPSCAN-ELISA) of ELVRKREECLDALES >= 90
### Response No

New cases:
### Prompt # bool: Binding of CRJB (10 μg/ml) to looped/cyclic peptide (PEPSCAN-ELISA) of SFRRLSHLRKLVPGF >= 90
### Response No

### Prompt # bool: Binding of CRJB (10 μg/ml) to looped/cyclic peptide (PEPSCAN-ELISA) of EADAHYKSVRTWNEI >= 90
### Response No

### Prompt # bool: Binding of CRJB (10 μg/ml) to looped/cyclic peptide (PEPSCAN-ELISA) of RGKRASKGSETCGFV >= 90
### Response No

### Prompt # bool: Binding of CRJB (10 μg/ml) to looped/cyclic peptide (PEPSCAN-ELISA) of LMEADAHYKSVRTWN >= 90
### Response No

### Prompt # bool: Binding of CRJB (10 μg/ml) to looped/cyclic peptide (PEPSCAN-ELISA) of VVEELVRKREECLDA >= 90
### Response No

### Prompt # bool: Binding of CRJB (10 μg/ml) to looped/cyclic peptide (PEPSCAN-ELISA) of NVLIPEMQSSLLQQH >= 90
### Response Yes
